Entry source: ChEMBL document CHEMBL3991601

- target_entity: Phosphorylase b kinase gamma catalytic chain, liver/testis isoform (Homo sapiens, UniProt P15735); further: in the data inactive means no Kd found up to 30 µM
- Sequence (P15735 whole entry, canonical isoform): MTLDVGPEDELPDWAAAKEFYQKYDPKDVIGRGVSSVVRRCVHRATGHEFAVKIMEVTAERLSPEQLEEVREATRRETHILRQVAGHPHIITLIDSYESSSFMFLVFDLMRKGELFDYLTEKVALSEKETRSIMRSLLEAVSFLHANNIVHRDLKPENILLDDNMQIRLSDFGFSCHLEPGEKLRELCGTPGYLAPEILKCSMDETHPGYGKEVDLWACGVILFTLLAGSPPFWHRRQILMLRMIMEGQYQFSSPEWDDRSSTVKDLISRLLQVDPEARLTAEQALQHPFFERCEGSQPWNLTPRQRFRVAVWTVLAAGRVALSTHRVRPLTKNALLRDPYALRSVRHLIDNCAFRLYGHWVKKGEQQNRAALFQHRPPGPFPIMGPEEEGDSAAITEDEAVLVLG
Active and inactive are the calls of the source.
measured_metric: Kd

Query :: Using the record for "COCC(=O)NC/C=C/c1ccc2ncnc(Nc3ccc(Oc4ccc(C)nc4)c(C)c3)c2c1" , report its Kd.
Result :: > 30 µM (inactive)

Query :: Entry "CNC(=O)c1nn(C)c2c1C(C)(C)Cc1cnc(Nc3ccc(N4CCN(C)CC4)cc3)nc1-2" please
Result :: 18.6 µM

Query :: Entry "NC(=O)Nc1cc(-c2cccc(F)c2)sc1C(=O)N[C@H]1CCCNC1" please
Result :: > 30 µM (inactive)

Query :: Entry "Nc1ncnc2c1c(-c1cccc(OCc3ccccc3)c1)cn2[C@H]1C[C@@H](CN2CCC2)C1" please
Result :: > 30 µM (inactive)

Query :: Entry "O=C(Cc1ccc(-c2ccc(OCCN3CCOCC3)cc2)cn1)NCc1ccccc1" please
Result :: > 30 µM (inactive)

Query :: Entry "CO[C@H]1C[C@@H]2CC[C@@H](C)[C@@](O)(O2)C(=O)C(=O)N2CCCC[C@H]2C(=O)O[C@H]([C@H](C)C[C@@H]2CC[C@@H](OC(=O)C(C)(CO)CO)[C@H](OC)C2)CC(=O)[C@H](C)/C=C(\C)[C@@H](O)[C@@H](OC)C(=O)[C@H](C)C[C@H](C)/C=C/C=C/C=C/1C" please
Result :: > 30 µM (inactive)
